- Assay target: human amylin receptor (hAMYR3) (Homo sapiens, UniProt O60896+P30988)
- Construct: host or cells: BHK cells (Hollex-1 line expressing hCTR(a) and CRE-Luc), further transfected with human RAMP3
- Sequence (P30988 25-474): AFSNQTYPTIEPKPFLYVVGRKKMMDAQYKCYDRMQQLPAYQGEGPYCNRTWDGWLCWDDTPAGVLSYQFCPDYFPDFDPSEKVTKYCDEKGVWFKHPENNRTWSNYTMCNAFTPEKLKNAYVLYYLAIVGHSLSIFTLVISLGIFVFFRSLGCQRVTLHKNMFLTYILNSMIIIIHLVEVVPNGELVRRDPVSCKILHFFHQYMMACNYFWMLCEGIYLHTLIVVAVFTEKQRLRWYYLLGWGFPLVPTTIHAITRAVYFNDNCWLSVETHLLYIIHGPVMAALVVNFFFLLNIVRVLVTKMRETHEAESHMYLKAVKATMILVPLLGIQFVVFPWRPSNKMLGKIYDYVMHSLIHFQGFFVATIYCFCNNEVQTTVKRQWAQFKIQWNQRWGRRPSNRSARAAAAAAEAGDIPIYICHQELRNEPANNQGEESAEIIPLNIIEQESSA
- Sequence (O60896 24-148): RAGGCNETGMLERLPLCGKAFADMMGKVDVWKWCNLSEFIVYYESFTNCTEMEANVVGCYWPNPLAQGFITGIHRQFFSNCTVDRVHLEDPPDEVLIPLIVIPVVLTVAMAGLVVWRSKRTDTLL
- Assay summary: Amylin receptor assay, method B (CRE-luciferase reporter, BHK cells)
- Assay type: cell-based
- Measurement context: hAMYR3 Potency, 1% HSA, EC50, methods B, in the presence of 1% HSA
Numbered stars: 1 amine (or outer) side, 2 acyl side, 3 side chain; on linkers, the order of the positions; unused ones are H or OH. Square brackets hold non-standard residues; d marks the D form. Side chains are listed from the residue outwards. * marks the point of attachment. C20 diacid = O=C(O)CCCCCCCCCCCCCCCCCCC(=O)*; C16 diacid = O=C(O)CCCCCCCCCCCCCCC(=O)*; γGlu = O=C(O)[C@H](CCC(=O)[*:2])N[*:1]; AEEA = NCCOCCOCC(=O)O; Aib = CC(C)(N)C(=O)O
Measured attribute: EC50 (nM)

INSERT INTO measurements (substance, assay_target, unit_symbol, endpoint_value) VALUES
  ('Y[Aib]EGTFTSDYSILLEEQAAREFIEWLLAGGPSK([AEEA-AEEA-γGlu-C16 diacid])GEASELSTAALGRLSAELHRLATLPRTETGSGSP-NH2 [Compound 18]', 'human amylin receptor (hAMYR3) (Homo sapiens, UniProt O60896+P30988)', 'nM', 1.3),
  ('Y[Aib]EGTFTSDYSILLEEQAAREFIEWLLAGGPSSGAGQAPGQAPGASHLSTAQTQRLSAELHK([AEEA-AEEA-γGlu-C20 diacid])LATLPRTETGSGSP-NH2 [Compound 115]', 'human amylin receptor (hAMYR3) (Homo sapiens, UniProt O60896+P30988)', 'nM', 0.551);

The measurements presented in this section are drawn from patent US20260174875A1.
